Every entry's value here was drawn from patent US5612344A.

target: AMPA receptors; assay: Binding of 3H-AMPA (displacement from rat cerebra membrane material); settings: displacement of 3H-AMPA, rat cerebra membranes, pH 7.1, on ice 60 minutes
pKi: −log10 of the molar value.
property-name: pKi

O=C(O)c1nc2c3c(Cl)cc(Cl)cc3nc(=O)n2[nH]1; 5.89

(I) O=C(O)c1nc2c3ccc(C(F)(F)F)cc3nc(=O)n2[nH]1
(II) O=C(O)c1nc2c3ccc([N+](=O)[O-])cc3nc(=O)n2[nH]1
Of the two listed items, I and II , which carries the larger pKi figure? Your answer should be the label of the entry you select.
I
(I: 5.85, II: 5.59)

###

biological target: NMDA (N-methyl-D-aspartate) receptors (Rattus norvegicus, UniProt P35439); construct: isolated membrane material from rat cerebra; test: Binding of 3H-5,7-dichlorokynurenic acid (displacement from rat cerebra membrane material); settings: displacement of 3H-5,7-dichlorokynurenic acid, rat cerebra membranes, pH 7.4, on ice 30 minutes
property-name: Ki (nM)

CCOC(=O)c1nc2c3cc(C)c(C)cc3nc(=O)n2[nH]1; 160

(a) Cc1cc2nc(=O)n3[nH]c(C(=O)O)nc3c2cc1C
(b) O=C(O)c1nc2c3c(Cl)cc(Cl)cc3nc(=O)n2[nH]1
Lab log: flag the item ( a or b ) with the smaller Ki figure. Answer by stating the label of the chosen item.
a
